Entry source: patent US5100910A

Target: MAO-B (Rattus norvegicus)
Construct: using, as enzyme source, a mitochrondrial suspension of the brain of a rat; from tissue; host or cells: rat brain, mitochondrial suspension
Assay: In vitro inhibition of monoamine oxidase B (substrate phenylethylamine, PEA; mitochondrial suspension of rat brain)
Type: biochemical
Conditions: Table VIII; PEA substrate, 20 min preincubation, reaction 10 min
experimentalReadout: IC50 (nM)

Some entries whose results are on file:
structureSmilesString | IC50, nM
Cc1ccc(COc2ccc(-c3nnnn3CC#N)cc2)cc1 | 15
N#CCCn1nnc(-c2ccc(OCc3ccc(F)cc3)cc2)n1 | 210
N#CCn1nnnc1-c1ccc(OCc2ccc(F)cc2)cc1 | 24
BrCCn1nnc(-c2ccc(OCc3ccccc3)cc2)n1 | 90
Cc1cccc(COc2ccc(-c3nnn(CCC#N)n3)cc2)c1 | 200

1: N#CCn1nnc(-c2ccc(OCc3ccccc3)cc2)n1
2: Cc1ccc(COc2ccc(-c3nnn(CC#N)n3)cc2)cc1
stdin: So which one has the bigger IC50 here, 1 or 2 ? // return label of chosen record
stdout: 2
(2: 1600 nM, 1: 100 nM)

A: Cc1ccccc1COc1ccc(-c2nnn(CCC#N)n2)cc1
B: CC(=O)NCCn1nnc(-c2ccc(OCc3ccccc3)cc2)n1
C: COc1cccc(COc2ccc(-c3nnn(CCC#N)n3)cc2)c1
stdin: Task field, ranking: reported IC50, descending order. Returns: the labels arranged in the requested order.
stdout: B, C, A
(B: 1500 nM, C: 400 nM, A: 110 nM)

====

Target: MAO-A (Rattus norvegicus, UniProt P21396)
Construct: using, as enzyme source, a mitochrondrial suspension of the brain of a rat; from tissue; host or cells: rat brain, mitochondrial suspension
Test: In vitro inhibition of monoamine oxidase A (substrate serotonine, 5-HT; mitochondrial suspension of rat brain)
Format: biochemical
Settings: read-out: % of inhibition of MAO-A at a concentration of 10^-6 M; Table VIII; at a concentration of 10^-6 M; 5-HT substrate
experimentalReadout: inhibition at 1 µM (%)

Some entries whose results are on file:
structureSmilesString | unitsSymbol | valueMeasured
BrCCn1nnc(-c2ccc(OCc3ccccc3)cc2)n1 | % | 4
OCCn1nnnc1-c1ccc(OCc2ccccc2I)cc1 | % | 3
OCCn1nnc(-c2ccc(OCc3ccc(F)cc3)cc2)n1 | % | 2

1: CN(C)CCn1nnc(-c2ccc(OCc3ccccc3)cc2)n1
2: Cc1cccc(COc2ccc(-c3nnnn3CCC#N)cc2)c1
stdin: So which one has the bigger inhibition at 1 µM here, 1 or 2 ? // return label of chosen record
stdout: 1

====

Biological target: MAO-B (Rattus norvegicus)
Construct: using, as enzyme source, a mitochrondrial suspension of the brain of a rat; from tissue; host or cells: rat brain, mitochondrial suspension
Sequence (P19643 1-520): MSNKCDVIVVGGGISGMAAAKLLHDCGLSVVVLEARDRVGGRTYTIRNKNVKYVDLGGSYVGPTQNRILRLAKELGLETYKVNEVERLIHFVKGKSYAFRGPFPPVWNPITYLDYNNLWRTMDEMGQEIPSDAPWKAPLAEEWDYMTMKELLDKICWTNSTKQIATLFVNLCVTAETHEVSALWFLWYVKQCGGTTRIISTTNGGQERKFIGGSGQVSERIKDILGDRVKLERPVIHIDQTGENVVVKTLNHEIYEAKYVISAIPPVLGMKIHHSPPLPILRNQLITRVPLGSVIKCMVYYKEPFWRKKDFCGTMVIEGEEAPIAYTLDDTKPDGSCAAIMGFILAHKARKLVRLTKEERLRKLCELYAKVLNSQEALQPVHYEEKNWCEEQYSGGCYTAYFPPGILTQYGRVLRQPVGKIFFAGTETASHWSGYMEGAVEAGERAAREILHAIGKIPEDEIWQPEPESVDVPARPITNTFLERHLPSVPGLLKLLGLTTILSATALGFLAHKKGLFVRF
Experiment: In vitro inhibition of monoamine oxidase B (substrate phenylethylamine, PEA; mitochondrial suspension of rat brain)
Format: biochemical
Settings: Table VII; PEA substrate, 20 min preincubation, reaction 10 min
Method: The quantitative determination of the MAO, activity was made up by using, as enzyme source, a mitochrondrial suspension of the brain of a rat. The standard determination consists in preincubating the enzyme for 20 minutes in the absence then in the presence of the inhibitors. […] The operating method used is that of the protocol of P. C. Baker, Dev. Biol. 14, 267 (1966). […]
experimentalReadout: IC50 (nM)

Some entries whose results are on file:
compound | unitsSymbol | valueMeasured
COc1ccc(COc2ccc(-c3nnnn3CCO)cc2)cc1 [compound 51] | nM | 890
N#CCCCn1nnc(-c2ccc(-c3ccccc3)cc2)n1 [compound 14] | nM | 1200
Cc1ccc(COc2ccc(-c3nnn(CCC#N)n3)cc2)cc1 [compound 32] | nM | 570
N#CCCn1nc(-c2ccc(OCc3ccccc3)cc2)sc1=S [compound 57] | nM | 62
OCCn1nnc(-c2ccc(OCc3ccccc3Cl)cc2)n1 [compound 18] | nM | 5.5

P: OCCCCCCn1nnc(-c2ccc(-c3ccccc3)cc2)n1 [compound 27]
Q: OCCn1nnc(-c2ccc(OCc3ccc(Cl)cc3)cc2)n1 [compound 20]
stdin: Input pair: P , Q . Output: entry with lower IC50. // return label of chosen record
stdout: Q

A: OCCn1nnc(-c2ccc(OCc3ccc(Cl)c(Cl)c3)cc2)n1 [compound 23]
B: N#CCCn1nc(-c2ccc(OCc3ccccc3)cc2)sc1=O [compound 56]
C: N#CCCn1nc(-c2ccc(OCc3ccccc3)cc2)oc1=S [compound 55]
stdin: Task field, ranking: reported IC50, descending order. Returns: the labels arranged in the requested order.
stdout: A, B, C

====

Biological target: MAO-A (Rattus norvegicus)
Construct: using, as enzyme source, a mitochrondrial suspension of the brain of a rat; from tissue; host or cells: rat brain, mitochondrial suspension
Assay: In vitro inhibition of monoamine oxidase A (substrate serotonine, 5-HT; mitochondrial suspension of rat brain)
Type: biochemical
Conditions: read-out: % of inhibition of MAO-A at a concentration of 10^-6 M; Table VIII; at a concentration of 10^-6 M; 5-HT substrate
experimentalReadout: inhibition at 1 µM (%)

structureSmilesString | experimentalReadout | valueMeasured
Cc1ccc(COc2ccc(-c3nnnn3CC#N)cc2)cc1 | inhibition at 1 µM | 12

A: COc1ccc(COc2ccc(-c3nnn(CCC#N)n3)cc2)cc1
B: Cc1ccc(COc2ccc(-c3nnn(CCO)n3)cc2)cc1
stdin: Input pair: A , B . Output: entry with lower inhibition at 1 µM. // return label of chosen record
stdout: B
(B: 0%, A: 9%)

====

Target: UniProt:P21396
Sequence (P21396 1-526): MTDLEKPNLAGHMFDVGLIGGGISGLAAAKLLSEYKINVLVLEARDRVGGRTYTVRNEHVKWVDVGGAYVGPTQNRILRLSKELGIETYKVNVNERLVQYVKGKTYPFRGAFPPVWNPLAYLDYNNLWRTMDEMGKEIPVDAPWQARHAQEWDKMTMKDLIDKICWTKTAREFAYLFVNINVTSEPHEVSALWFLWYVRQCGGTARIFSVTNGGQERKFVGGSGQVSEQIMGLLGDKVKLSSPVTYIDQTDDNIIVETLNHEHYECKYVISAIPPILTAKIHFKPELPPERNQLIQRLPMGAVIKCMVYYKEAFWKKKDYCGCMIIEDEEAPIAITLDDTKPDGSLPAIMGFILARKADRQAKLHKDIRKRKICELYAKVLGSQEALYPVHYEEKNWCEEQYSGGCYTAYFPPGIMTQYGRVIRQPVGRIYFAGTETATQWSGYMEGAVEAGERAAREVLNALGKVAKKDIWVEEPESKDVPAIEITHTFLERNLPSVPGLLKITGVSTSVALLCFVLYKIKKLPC
pIC50: −log10 of the molar value.
experimentalReadout: pIC50

Some entries whose results are on file:
structureSmilesString | pIC50
N#CCCn1nnc(-c2ccc(OCc3ccccc3)cc2)n1 | 4.07
N#CCCn1nnc(-c2ccc(OCc3cccc(Cl)c3)cc2)n1 | 3.82

1: N#CCCCn1nnc(-c2ccc(-c3ccccc3)cc2)n1
2: OCCn1nnc(-c2ccc(OCc3ccccc3Cl)cc2)n1
3: OCCn1nnc(-c2ccc(OCc3ccc(Cl)c(Cl)c3)cc2)n1
stdin: Sort ascending by pIC50. Returns: the labels arranged in the requested order.
stdout: 3, 2, 1

====

Target: MAO-B (Rattus norvegicus)
Construct: using, as enzyme source, a mitochrondrial suspension of the brain of a rat; from tissue; host or cells: rat brain, mitochondrial suspension
Experiment: In vitro inhibition of monoamine oxidase B (substrate phenylethylamine, PEA; mitochondrial suspension of rat brain)
Type: biochemical
Details: Table VIII; PEA substrate, 20 min preincubation, reaction 10 min
experimentalReadout: IC50 (nM)

Some entries whose results are on file:
compound | subjectOfTest | valueMeasured
COc1cccc(COc2ccc(-c3nnn(CCO)n3)cc2)c1 [compound 45] | MAO-B (Rattus norvegicus) | 800
COc1ccc(COc2ccc(-c3nnn(CCC#N)n3)cc2)cc1 [compound 41] | MAO-B (Rattus norvegicus) | 3400
Cc1ccccc1COc1ccc(-c2nnnn2CCC#N)cc1 [compound 60] | MAO-B (Rattus norvegicus) | 480
OCCn1nnnc1-c1ccc(OCc2ccc(F)cc2)cc1 [compound 53] | MAO-B (Rattus norvegicus) | 360
OCCn1nnc(-c2ccc(OCc3ccc(F)cc3)cc2)n1 [compound 48] | MAO-B (Rattus norvegicus) | 270

I: COc1ccc(COc2ccc(-c3nnnn3CCO)cc2)cc1 [compound 51]
II: N#CCn1nnnc1-c1ccc(OCc2ccccc2)cc1 [compound 59]
III: N#CCn1nnc(-c2ccc(OCc3ccc(F)cc3)cc2)n1 [compound 46]
IV: Cc1ccccc1COc1ccc(-c2nnn(CCO)n2)cc1 [compound 39]
V: Cc1ccc(COc2ccc(-c3nnn(CCO)n3)cc2)cc1 [compound 33]
stdin: Task field, ranking: reported IC50, descending order. Returns: the labels arranged in the requested order.
stdout: V, I, IV, III, II
(V: 8000 nM, I: 900 nM, IV: 290 nM, III: 170 nM, II: 67 nM)
